# TARGET UNDER TEST: ERR1 (also known as ERR-α or ERR-1) (Homo sapiens, UniProt P11474)
# Sequence (P11474 193-421 limits assumed, species assumed): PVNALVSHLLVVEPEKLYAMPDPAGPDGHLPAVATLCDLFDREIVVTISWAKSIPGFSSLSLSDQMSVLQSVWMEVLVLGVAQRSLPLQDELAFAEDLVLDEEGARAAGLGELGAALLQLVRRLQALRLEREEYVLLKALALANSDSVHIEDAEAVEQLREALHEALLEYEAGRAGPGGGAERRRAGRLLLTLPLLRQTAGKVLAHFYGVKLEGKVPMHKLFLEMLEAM
# ASSAY COMMENT: TR-FRET assay (disruption of co-activator peptide binding to ERR1 LBD)
# CONDITION LABEL: 6 nM 6His-ERR1LBD, 6 nM GST-SRC-2 peptide; average of 3 independent experiments
pEC50: −log10 of the molar value.
Label Met for high-side pEC50 (at or above 7) and Not met for low-side pEC50 (below it).

Request: Does the compound O=C(NN1C(=O)S/C(=C\c2ccc3c(cnn3Cc3ccc(Cl)cc3C(F)(F)F)c2)C1=O)C1CC1 [Compound 373] have recorded pEC50 that is 7 or more?
Response: Met

Request: Check if pEC50 >= 7 (inclusive). Item: CN1CCN(CCCN2C(=O)S/C(=C\c3ccc4c(ccn4Cc4ccc(Cl)cc4C(F)(F)F)c3)C2=O)CC1 [Compound 245]
Response: Met

Request: hey, is pEC50 for this one >= 7? O=C1S/C(=C\c2ccc3c(cnn3Cc3ccc(Cl)cc3C(F)(F)F)c2)C(=O)N1C[C@@H]1COCCN1 [Compound 198]
Response: Met

Request: Determine whether measured pEC50 meets or exceeds 7 for Cc1nn(Cc2ccc(Cl)cc2C(F)(F)F)c2ccc(/C=C3\SC(=O)N([C@@H]4CCNC[C@H]4F)C3=O)cc12 (relative stereo) [Compound 333]
Response: Met

Request: Is it the case that O=C1S/C(=C\c2ccc3c(cnn3Cc3ccc(Cl)cc3C(F)(F)F)c2)C(=O)N1[C@@H]1CCOC1 [Compound 125] has pEC50 reaching or exceeding 7?
Response: Met

Request: Item O=C1S/C(=C\c2ccc3c(cnn3Cc3ccc(Cl)cc3C(F)(F)F)c2)C(=O)N1C1(C(=O)O)CCOCC1 [Compound 227] with pEC50 of 7 or above?
Response: Met

Request: Hello, I need to know if COC(=O)[C@@H](COC(C)(C)C)N1C(=O)S/C(=C\c2ccc3c(cnn3Cc3ccc(Cl)cc3C(F)(F)F)c2)C1=O [Compound 212] has measured pEC50 not below 7. Thanks!
Response: Not met

Request: Is reported pEC50 greater than or equal to 7 here: O=C(CN1C(=O)S/C(=C\c2ccc3c(cnn3Cc3ccc(Cl)cc3C(F)(F)F)c2)C1=O)NS(=O)(=O)N1CCCC1 [Compound 38]
Response: Met

Request: Reported pEC50 reaches at least 7 for CS(=O)(=O)NC(=O)CN1C(=O)S/C(=C\c2ccc3c(cnn3Cc3ccc(Cl)cc3C(F)(F)F)c2)C1=O [Compound 126] ?
Response: Met

Request: Determine whether this compound has pEC50 no lower than 7: CN1C[C@@H](O)[C@H](N2C(=O)S/C(=C\c3ccc4c(cnn4Cc4ccc(Cl)cc4C(F)(F)F)c3)C2=O)C1 (relative stereo) [Compound 318]
Response: Met

Request: Record CS(=O)(=O)NN1C(=O)S/C(=C\c2ccc3c(cnn3Cc3ccc(Cl)cc3C(F)(F)F)c2)C1=O [Compound 361] ; criterion: pEC50 no lower than 7. Met?
Response: Met

Request: Decide: pEC50 of CCOc1nn(Cc2ccc(Cl)cc2C(F)(F)F)c2ccc(/C=C3\SC(=O)N(CCN4CCCC4)C3=O)cc12 [Compound 33] >= 7?
Response: Not met

Request: Answer whether pEC50 of COC(=O)[C@@H]1C[C@@H](N2C(=O)S/C(=C\c3ccc4c(cnn4Cc4ccc(Cl)cc4C(F)(F)F)c3)C2=O)CN1 [Compound 180] is greater than or equal to 7.
Response: Met

Request: Reported pEC50 at or above 7? COc1ccc(Cn2ncc3cc(/C=C4\SC(=O)N(C[C@@H]5CCCN5C)C4=O)ccc32)c(C(F)(F)F)c1 [Compound 23]
Response: Met

Request: Dear colleague, could you confirm whether COc1ccc(Cn2ncc3cc(/C=C4\SC(=O)N(CC(=O)O)C4=O)ccc32)c(C(F)(F)F)c1 [Compound 19] has pEC50 at or above 7?
Response: Met

Request: hey, is pEC50 for this one >= 7? CN1CC[C@@H](N2C(=O)S/C(=C\c3ccc4c(cnn4Cc4ccc(C(F)(F)F)cc4C(F)(F)F)c3)C2=O)[C@H](O)C1 (relative stereo) [Compound 276]
Response: Met

Request: # bool: pEC50 of CS(=O)(=O)NN1C(=O)S/C(=C\c2ccc3c(cnn3Cc3ccc(C#N)cc3C(F)(F)F)c2)C1=O [Compound 362] >= 7
Response: Not met

Request: Is pEC50 for O=C(O)[C@@H]1C[C@@H](N2C(=O)S/C(=C\c3ccc4c(cnn4Cc4ccc(Cl)cc4C(F)(F)F)c3)C2=O)CN1 [Compound 181] at or above 7?
Response: Met
